Numbers sourced from patent US20240247080A1.

molecular target: hGLP1R (Homo sapiens); construct: expressed in transfected cells; host or cells: HEK-293 cells carrying a CRE-luciferase reporter gene; assay: hGLP1R CreLuc reporter gene assay in 0.5% and 100% plasma; format: cell-based; settings: CreLuc reporter gene assay, 0.5% human plasma; read-out: hGLP1R 0.5% hP
Sequence (P43220 24-463): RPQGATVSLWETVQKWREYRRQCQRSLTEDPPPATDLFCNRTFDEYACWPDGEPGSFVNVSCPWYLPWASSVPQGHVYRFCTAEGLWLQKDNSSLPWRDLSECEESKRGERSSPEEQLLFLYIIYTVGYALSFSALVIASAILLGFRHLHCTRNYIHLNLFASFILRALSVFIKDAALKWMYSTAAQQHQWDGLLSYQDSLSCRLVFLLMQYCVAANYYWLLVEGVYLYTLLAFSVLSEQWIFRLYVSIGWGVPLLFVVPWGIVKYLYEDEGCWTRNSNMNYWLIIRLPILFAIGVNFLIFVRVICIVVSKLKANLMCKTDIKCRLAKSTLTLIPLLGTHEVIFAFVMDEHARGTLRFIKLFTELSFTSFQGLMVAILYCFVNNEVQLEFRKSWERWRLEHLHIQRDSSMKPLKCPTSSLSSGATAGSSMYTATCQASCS
Starred links: 1 amine or outer side, 2 acyl side, 3 side chain; linkers in the order of their positions; H or OH if unused. Positions of bridges follow the written chain, without caps; N, C: chain ends. Non-standard residues stand in square brackets, D forms with d. Groups on a side chain read outwards from the residue. Chains are numbered I, II in the order given. No end group written: not given here. *: point of attachment. C20 diacid = O=C(O)CCCCCCCCCCCCCCCCCCC(=O)*; C18 diacid = O=C(O)CCCCCCCCCCCCCCCCC(=O)*; γGlu = O=C(O)[C@H](CCC(=O)[*:2])N[*:1]; εLys = N[C@@H](CCCCN[*:1])C(=O)[*:2]; hArg = N=C(N)NCCCC[C@H](N)C(=O)O; AEEA = NCCOCCOCC(=O)O; Aib = CC(C)(N)C(=O)O; Ahx = NCCCCCC(=O)O
Provide the reported EC50 of each item.
Write it as a number; the unit pM goes unstated.

[ask] If you can, please state the reported EC50 value of H-Y[Aib]EGTFTSDYSI[Aib]LEKQAQ[Aib]AFVEWLIK([γGlu-γGlu-γGlu-γGlu-γGlu-γGlu-C20 diacid])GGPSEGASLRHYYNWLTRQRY-NH2 [Compound 305] .
[reply] 290

[ask] Any idea what EC50 was measured for I: H-Y[Aib]EGTFTSDYSI[Aib]LEKQAQ[Aib]AFVQWLIKGGPSEGASLRHYYNWLTRQRY-NH2 / II: {C18 diacid}-EEEEEE (amide I:28-II:C) [Compound 264] ?
[reply] 110

[ask] Item under review: H-Y[Aib]EGTFTSDYSI[Aib]LEKQAQ[Aib]AFVEWLIK([εLys-γGlu-γGlu-γGlu-γGlu-γGlu-γGlu-C20 diacid])GGPSSYVSLRHYYNWLTRQRY-NH2 [Compound 40] . Reported EC50?
[reply] 460

[ask] Which EC50 reading was recorded for the substance Y[Aib]EGTFTSDYSI[Aib]LEKQAQ[Aib]AFVQWLIK([Ahx-γGlu-γGlu-γGlu-γGlu-γGlu-γGlu-C18 diacid])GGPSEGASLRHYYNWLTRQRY-NH2 [Compound 245] ?
[reply] 90

[ask] Given the substance H-Y[Aib]EGTFTSDYSI[Aib]LEKQAQ[Aib]AFVQWLIK([AEEA-AEEA-γGlu-γGlu-γGlu-γGlu-C20 diacid])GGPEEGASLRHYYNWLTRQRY-NH2 [Compound 193] , what is its reported EC50?
[reply] 360

[ask] # input substance: H-Y[Aib]EGTFTSDYSI[Aib]LEKQAQ[Aib]AFVEWLIK([εLys-γGlu-γGlu-γGlu-γGlu-γGlu-γGlu-C20 diacid])GGPSSAVSLRHYYNWLTRQRY-NH2 [Compound 33] ; wanted: its EC50
[reply] 140

[ask] Item under review: Y[Aib]EGTFTSDYSI[Aib]LEKQAQ[Aib]AFVEWLIK([εLys-γGlu-γGlu-γGlu-γGlu-γGlu-C18 diacid])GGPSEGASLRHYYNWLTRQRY-NH2 [Compound 295] . Reported EC50?
[reply] 140

[ask] Which value of EC50 has been reported for H-Y[Aib]EGTFTSDYSI[Aib]LEKQAQ[Aib]EFVQWLIK([γGlu-γGlu-γGlu-γGlu-C20 diacid])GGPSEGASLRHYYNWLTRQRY-NH2 [Compound 194] in the records?
[reply] 290

[ask] Quick check: EC50 of H-Y[Aib]EGTFTSDYSI[Aib]LEKQAQ[Aib]AFVEWLIK([εLys-γGlu-γGlu-γGlu-γGlu-γGlu-γGlu-C20 diacid])GGPSSGISLRHYYNWLTRQRY-NH2 [Compound 94] ?
[reply] 90

[ask] Quick one: EC50 of H-Y[Aib]EGTFTSDYSI[Aib]LEKQAQ[Aib]AFVEWLIK([εLys-γGlu-γGlu-γGlu-γGlu-γGlu-γGlu-C20 diacid])GGPSSGASLRHYYNWLT[hArg]QR[dY]-NH2 [Compound 71] ?
[reply] 140
